- Assay system: N-type Ca2+ channels in IMR-32 cells (Homo sapiens, UniProt Q00975)
- Sequence (Q00975 whole entry): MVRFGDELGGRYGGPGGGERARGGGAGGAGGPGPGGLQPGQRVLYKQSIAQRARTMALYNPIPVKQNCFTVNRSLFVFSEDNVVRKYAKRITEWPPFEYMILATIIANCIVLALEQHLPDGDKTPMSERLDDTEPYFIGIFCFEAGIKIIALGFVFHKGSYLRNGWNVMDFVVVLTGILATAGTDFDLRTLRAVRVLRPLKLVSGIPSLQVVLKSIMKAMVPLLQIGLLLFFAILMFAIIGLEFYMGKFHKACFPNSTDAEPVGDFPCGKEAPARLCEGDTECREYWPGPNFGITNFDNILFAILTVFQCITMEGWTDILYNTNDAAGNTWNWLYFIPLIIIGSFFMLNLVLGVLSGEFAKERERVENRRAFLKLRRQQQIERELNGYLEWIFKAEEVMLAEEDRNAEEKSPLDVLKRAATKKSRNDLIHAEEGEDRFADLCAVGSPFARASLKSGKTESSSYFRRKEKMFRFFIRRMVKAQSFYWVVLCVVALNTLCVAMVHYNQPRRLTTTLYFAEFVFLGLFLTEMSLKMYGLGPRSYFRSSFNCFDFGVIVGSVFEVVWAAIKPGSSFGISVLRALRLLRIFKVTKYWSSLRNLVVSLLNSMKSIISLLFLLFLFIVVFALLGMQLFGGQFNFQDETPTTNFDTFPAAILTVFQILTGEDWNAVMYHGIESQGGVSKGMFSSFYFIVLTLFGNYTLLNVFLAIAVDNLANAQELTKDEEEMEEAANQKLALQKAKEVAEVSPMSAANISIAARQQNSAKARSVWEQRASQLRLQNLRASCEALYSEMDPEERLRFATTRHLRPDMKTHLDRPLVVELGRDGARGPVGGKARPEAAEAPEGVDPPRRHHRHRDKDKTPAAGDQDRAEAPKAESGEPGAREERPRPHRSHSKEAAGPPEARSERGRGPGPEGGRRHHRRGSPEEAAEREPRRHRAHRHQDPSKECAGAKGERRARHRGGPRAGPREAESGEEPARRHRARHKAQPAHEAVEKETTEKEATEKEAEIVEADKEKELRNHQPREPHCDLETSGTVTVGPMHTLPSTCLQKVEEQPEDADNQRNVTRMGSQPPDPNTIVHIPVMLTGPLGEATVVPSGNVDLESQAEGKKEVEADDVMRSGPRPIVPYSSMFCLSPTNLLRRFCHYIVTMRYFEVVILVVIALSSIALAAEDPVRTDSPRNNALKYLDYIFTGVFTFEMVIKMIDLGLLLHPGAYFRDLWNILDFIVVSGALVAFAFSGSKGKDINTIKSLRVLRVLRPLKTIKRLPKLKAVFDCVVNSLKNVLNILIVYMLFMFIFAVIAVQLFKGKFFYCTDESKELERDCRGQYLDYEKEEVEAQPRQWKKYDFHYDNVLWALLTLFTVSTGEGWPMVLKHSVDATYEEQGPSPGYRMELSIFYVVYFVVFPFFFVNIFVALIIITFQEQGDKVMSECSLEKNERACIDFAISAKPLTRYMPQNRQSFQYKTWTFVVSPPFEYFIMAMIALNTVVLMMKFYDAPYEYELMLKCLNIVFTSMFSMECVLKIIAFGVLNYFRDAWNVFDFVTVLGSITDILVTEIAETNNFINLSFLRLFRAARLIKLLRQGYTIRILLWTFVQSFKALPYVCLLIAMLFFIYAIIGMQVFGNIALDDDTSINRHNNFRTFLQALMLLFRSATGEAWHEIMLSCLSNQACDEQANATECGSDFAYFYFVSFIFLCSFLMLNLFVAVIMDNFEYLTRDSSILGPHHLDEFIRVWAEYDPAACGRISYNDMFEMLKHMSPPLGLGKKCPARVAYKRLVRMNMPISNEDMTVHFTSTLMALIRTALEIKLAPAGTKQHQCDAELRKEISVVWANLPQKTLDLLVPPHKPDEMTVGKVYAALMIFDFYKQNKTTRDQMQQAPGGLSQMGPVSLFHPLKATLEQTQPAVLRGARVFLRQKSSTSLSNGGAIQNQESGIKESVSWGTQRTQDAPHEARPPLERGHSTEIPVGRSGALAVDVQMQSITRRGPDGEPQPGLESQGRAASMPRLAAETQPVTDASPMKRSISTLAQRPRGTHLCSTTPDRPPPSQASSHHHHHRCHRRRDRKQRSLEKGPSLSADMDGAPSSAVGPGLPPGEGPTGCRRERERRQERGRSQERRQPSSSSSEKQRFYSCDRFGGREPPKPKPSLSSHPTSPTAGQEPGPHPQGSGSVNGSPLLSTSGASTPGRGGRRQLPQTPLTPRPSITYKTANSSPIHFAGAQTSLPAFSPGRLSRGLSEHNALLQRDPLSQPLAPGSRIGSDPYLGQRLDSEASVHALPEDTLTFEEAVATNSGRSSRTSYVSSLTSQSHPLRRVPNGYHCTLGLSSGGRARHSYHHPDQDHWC
- Sequence (P54289 25-956 partner limits assumed): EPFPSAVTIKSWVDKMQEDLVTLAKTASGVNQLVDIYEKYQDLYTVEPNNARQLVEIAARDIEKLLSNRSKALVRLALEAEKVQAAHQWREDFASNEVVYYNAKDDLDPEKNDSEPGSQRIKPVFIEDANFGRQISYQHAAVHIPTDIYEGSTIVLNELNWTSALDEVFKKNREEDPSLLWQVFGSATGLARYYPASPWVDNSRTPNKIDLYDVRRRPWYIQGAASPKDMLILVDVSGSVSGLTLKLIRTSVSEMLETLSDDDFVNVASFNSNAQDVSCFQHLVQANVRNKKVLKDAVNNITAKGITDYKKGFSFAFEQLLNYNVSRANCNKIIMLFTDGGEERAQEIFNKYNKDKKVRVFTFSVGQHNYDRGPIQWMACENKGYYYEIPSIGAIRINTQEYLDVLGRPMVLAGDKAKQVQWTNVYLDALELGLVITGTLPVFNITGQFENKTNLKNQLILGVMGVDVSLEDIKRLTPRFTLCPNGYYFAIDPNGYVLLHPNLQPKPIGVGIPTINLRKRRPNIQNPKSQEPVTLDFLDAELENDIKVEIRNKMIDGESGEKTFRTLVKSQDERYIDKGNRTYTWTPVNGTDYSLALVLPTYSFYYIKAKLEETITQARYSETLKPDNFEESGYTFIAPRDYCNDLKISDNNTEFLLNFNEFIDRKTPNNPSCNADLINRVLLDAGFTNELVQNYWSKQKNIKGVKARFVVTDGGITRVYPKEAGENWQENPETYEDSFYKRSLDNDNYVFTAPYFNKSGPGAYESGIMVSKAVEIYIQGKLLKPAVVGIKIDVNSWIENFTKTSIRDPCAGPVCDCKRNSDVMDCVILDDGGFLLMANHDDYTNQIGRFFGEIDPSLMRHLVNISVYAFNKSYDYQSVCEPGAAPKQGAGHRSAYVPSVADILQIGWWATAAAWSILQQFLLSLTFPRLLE
- Sequence (P54289 957-1103 partner limits assumed): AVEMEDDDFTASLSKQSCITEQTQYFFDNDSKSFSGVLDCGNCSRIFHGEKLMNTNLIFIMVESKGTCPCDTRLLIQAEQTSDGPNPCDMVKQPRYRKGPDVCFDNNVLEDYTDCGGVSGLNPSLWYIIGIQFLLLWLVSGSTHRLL
- Sequence (P54284 whole entry partner): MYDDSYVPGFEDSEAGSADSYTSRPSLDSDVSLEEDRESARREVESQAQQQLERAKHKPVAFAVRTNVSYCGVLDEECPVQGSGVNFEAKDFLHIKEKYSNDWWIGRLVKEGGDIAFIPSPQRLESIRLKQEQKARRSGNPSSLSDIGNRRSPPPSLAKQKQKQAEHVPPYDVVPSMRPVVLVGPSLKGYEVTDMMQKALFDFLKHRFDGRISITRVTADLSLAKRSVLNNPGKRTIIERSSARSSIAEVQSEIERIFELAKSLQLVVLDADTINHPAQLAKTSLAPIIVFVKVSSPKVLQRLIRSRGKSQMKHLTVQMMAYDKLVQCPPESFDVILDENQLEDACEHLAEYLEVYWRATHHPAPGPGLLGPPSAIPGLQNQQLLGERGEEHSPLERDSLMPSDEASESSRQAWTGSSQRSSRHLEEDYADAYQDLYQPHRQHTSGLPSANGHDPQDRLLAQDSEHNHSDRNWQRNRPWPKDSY
- Assay: Inhibition of N-type calcium flux in IMR-32 cells (Indo-1 fluorescence, nitrendipine present)
- Measurement parameters: IMR-32 cells, 5 μM nitrendipine, K+ depolarization
pIC50: −log10 of the molar value.
Entry flag: TRUE if pIC50 reaches 6; FALSE if it does not.

Study these solved cases before continuing.
[[record]]
compound = "CC(C)C[C@H](NC(=O)N1CCCCCC1)C(=O)N[C@@H](Cc1ccc(OC(C)(C)C)cc1)C(=O)OC(C)(C)C [Example 12]"
label_value = "TRUE"

[[record]]
compound = "CC(C)C[C@H](NC(=O)N1CCCCCC1)C(=O)N[C@@H](Cc1ccc(OCc2cccc(NC(=O)OC(C)(C)C)c2)cc1)C(=O)OC(C)(C)C [Example 28]"
label_value = "FALSE"


// query Determine whether measured pIC50 meets or exceeds 6 for CC(C)C[C@H](NC(=O)N1CCCCCC1)C(=O)N[C@@H](Cc1ccc(OCc2ccccc2)cc1)C(=O)NC1CC(C)(C)NC(C)(C)C1 [Example 203]
// result FALSE

// query Also need O=C(NCCN1CCCCC1)[C@H](Cc1ccc(OCc2ccccc2)cc1)NC(=O)[C@@H]1CCCN1C(=O)N1CCCCCC1 [Example 152] , thanks.
// result FALSE

// query Record: CC(C)C[C@H](NC(=O)N1CCCCCC1)C(=O)N[C@@H](Cc1ccc(OCc2ccccc2)cc1)C(=O)NC(C)(C)C [Example 23]
// result TRUE

// query Param item: CC(C)(C)OC(=O)[C@H](Cc1ccc(OCc2ccccc2)cc1)NC(=O)CNC(=O)N1CCCCCC1 (stereo in doubt) [Example 8]
// result FALSE

// query Then CC(C)C[C@H](NC(=O)N1CCCCCC1)C(=O)N[C@H](Cc1ccc(OCc2ccccc2)cc1)C(=O)OC(C)(C)C [Example 2] ?
// result FALSE

// query Now this one: CCCNC(=O)[C@H](Cc1ccc(OCc2ccccc2)cc1)NC(=O)[C@H](CC(C)C)NC(=O)N1CCCCCC1 [Example 169]
// result FALSE

// query Again, but for CC(C)C[C@H](NC(=O)N1CCCCCC1)C(=O)N[C@@H](Cc1ccc(OCc2ccccc2)cc1)C(=O)NCCCN1CCN(C)CC1 [Example 187]
// result FALSE

// query Similarly, CC(C)C[C@H](NC(=O)N1CCCCCC1)C(=O)N[C@@H](Cc1ccc(OCc2ccccc2)cc1)C(=O)NCC1CCNCC1 [Example 262] ?
// result FALSE

Provenance of the data: patent US6423689B1
